# reported log10 of Kd; entries follow
biological target: proMMP9(20-445;ΔFnII) (SEQ ID NO:6) (Homo sapiens, UniProt P14780, DEL216-390); construct: start methionine (N); experiment: ThermoFluor binding assay with proMMP9(20-445;ΔFnII)
Sequence (P14780 with tags, fused parts or gaps DEL216-390): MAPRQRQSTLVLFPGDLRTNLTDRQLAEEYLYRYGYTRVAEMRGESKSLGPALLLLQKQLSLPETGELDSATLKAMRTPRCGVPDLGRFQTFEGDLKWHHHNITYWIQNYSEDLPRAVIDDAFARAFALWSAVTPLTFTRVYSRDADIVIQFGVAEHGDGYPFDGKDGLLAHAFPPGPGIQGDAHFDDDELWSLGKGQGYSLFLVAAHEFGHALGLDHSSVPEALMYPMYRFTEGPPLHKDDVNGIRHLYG
Log scale reminder: Kd in nM, then log10 taken.

In the examples that follow, each entry is paired with its recorded log10 of Kd.
compound="CCN1CCCN(C(=O)c2ccc(-c3csc(Nc4cc(S(N)(=O)=O)ccc4OC(C)C)n3)cn2)CC1 [Example 52]" value_observed=3.08
compound="CC(C)Oc1ccc(S(N)(=O)=O)cc1Nc1nc(-c2ccc(CO)nc2)cs1 [Example 56]" value_observed=2.81
compound="CC(C)Oc1ccc(S(N)(=O)=O)cc1Nc1nc(-c2ccc(N3CCNCC3)nc2)cs1 [Example 44]" value_observed=1.68
compound="CC(C)Oc1ccc(C#N)cc1Nc1nc(-c2cccnc2)cs1 [Example 16]" value_observed=4.30
compound="CC(C)Oc1ccc(S(N)(=O)=O)cc1Nc1nc(-c2ccc(C(=O)NC3CN4CCC3CC4)nc2)cs1 (centres unmarked) [Example 86]" value_observed=2.66
compound="CCN1CCN(c2ccc(-c3csc(Nc4cc(S(N)(=O)=O)ccc4OC(C)C)n3)cn2)CC1 [Example 38]" value_observed=1.86

Exercise: // lookup log10 of Kd for COc1ccc(C#N)cc1Nc1nc(-c2cccnc2)cs1 [Example 9]
Key: 3.87

Exercise: What would you report for CC(C)Oc1ccc(S(N)(=O)=O)cc1Nc1nc(-c2ccc(N3CCC(N(C)C)CC3)nc2)cs1 [Example 41] ?
Key: 1.71

====

# reported pIC50; entries follow
biological target: full-length proMMP9(1-707) (SEQ ID NO:1), activation by catalytic MMP3 (Homo sapiens, UniProt P14780, R574P); construct: E. coli (MMP3); assay: proMMP9/MMP3 P126 Activation Assay
Sequence (P14780 20-707 R574P): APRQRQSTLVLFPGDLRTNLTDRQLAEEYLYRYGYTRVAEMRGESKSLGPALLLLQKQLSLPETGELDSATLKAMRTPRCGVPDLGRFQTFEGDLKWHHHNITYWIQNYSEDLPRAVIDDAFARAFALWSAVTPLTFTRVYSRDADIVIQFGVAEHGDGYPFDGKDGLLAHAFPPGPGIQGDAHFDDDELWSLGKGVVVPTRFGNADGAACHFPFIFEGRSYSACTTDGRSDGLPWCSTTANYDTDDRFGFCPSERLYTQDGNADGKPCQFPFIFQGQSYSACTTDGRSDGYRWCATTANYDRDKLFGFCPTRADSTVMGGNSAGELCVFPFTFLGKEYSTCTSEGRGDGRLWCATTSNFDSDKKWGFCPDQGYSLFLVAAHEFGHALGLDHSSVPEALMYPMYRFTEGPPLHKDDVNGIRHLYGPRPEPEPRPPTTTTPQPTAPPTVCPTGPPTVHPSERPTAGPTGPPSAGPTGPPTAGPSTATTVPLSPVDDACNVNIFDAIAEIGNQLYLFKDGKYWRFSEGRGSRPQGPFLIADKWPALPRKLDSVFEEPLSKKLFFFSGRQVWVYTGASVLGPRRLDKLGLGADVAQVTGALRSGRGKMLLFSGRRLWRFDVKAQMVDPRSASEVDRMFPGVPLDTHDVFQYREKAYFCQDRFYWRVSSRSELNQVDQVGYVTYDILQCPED
Schema: pIC50 number; meaning minus log10 of the concentration expressed in molar units.

chemical_smiles=CC(C)Oc1ccc(S(N)(=O)=O)cc1Nc1nc(-c2ccc(CO)nc2)cs1 observed_property=pIC50 value_observed=6.41

Exercise: // lookup pIC50 for `COc1cc(C(N)=O)ccc1Nc1nc(-c2cccnc2)cs1`
Key: 4.96

Exercise: What would you report for `COc1ccc(C#N)cc1Nc1nc(-c2cccnc2)cs1` ?
Key: 5.59

Exercise: What would you report for `COCCN(C)c1ccc(-c2csc(Nc3cc(S(N)(=O)=O)ccc3OC(C)C)n2)cn1` ?
Key: 6.80

Exercise: What would you report for `CC(C)Oc1ccc(C(N)=O)cc1Nc1nc(-c2ccccn2)cs1` ?
Key: 6.30

====

# reported log10(IC50); entries follow
target: full-length proMMP9(1-707) (SEQ ID NO:1), activation by catalytic MMP3 (Homo sapiens, UniProt P14780, R574P); construct: E. coli (MMP3); assay: proMMP9/MMP3 P126 Activation Assay
Log scale reminder: IC50 in nM, then log10 taken.

In the examples that follow, each entry is paired with its recorded log10(IC50).
compound=COc1ccc(-c2csc(Nc3cc(C(N)=O)ccc3OC(C)C)n2)cn1 observed_property=log10(IC50) value_observed=2.66
compound=CC(C)Cc1ccc(C(N)=O)cc1Nc1nc(-c2ccc(N3CCN(C)CC3)nc2)cs1 observed_property=log10(IC50) value_observed=3.26
compound=COC/C=C/c1ccc(-c2csc(Nc3cc(S(N)(=O)=O)ccc3OC(C)C)n2)cn1 observed_property=log10(IC50) value_observed=2.72

Exercise: // lookup log10(IC50) for `CC(C)Oc1ccc(C(=O)O)cc1Nc1nc(-c2cccnc2)cs1`
Key: 3.63

Exercise: What would you report for `CC(C)Oc1ccc(S(N)(=O)=O)cc1Nc1nc(-c2ccc(N3CCN(C(C)C)CC3)nc2)cs1` ?
Key: 1.94

Exercise: What would you report for `CN1CCN(c2ccc(-c3csc(Nc4cc(S(N)(=O)=O)ccc4OC(F)(F)F)n3)cn2)CC1` ?
Key: 2.88
